Tested on: OVCAR-8
Assay: NCI tumour cell line growth inhibition, 48 h
The source made the active and inactive calls. No stated cut-off is given here; in the data, active = GI50 up to about 1.1 µM and inactive = higher.
Choose the fitting class; nothing outside active, inactive is accepted.

S=C(Nc1c2c(nc3ccccc13)CCCC2)Nc1c2c(nc3ccccc13)CCCC2; inactive
CC(=O)OCC12CCC3C4(C)CCCC(C)(C)C4CCC3(C)C1CC(C1=CC(=O)OC1O)O2 (configuration not stated); inactive
COc1ccc(C2=C(N)c3cc(OC)ccc3C2=O)cc1; inactive

# fetch the recorded call for COc1ccc(N2C(=O)C3c4[nH]c5ccccc5c4C4CCCCCCCCCCC4C3C2=O)cc1 (configuration not stated) here
inactive

One more molecule: Clc1ccc(OCc2nnc(COc3ccc(OCc4nnc(COc5ccc(Cl)cc5Cl)o4)c(Cl)c3)o2)c(Cl)c1
inactive

One more molecule: COC(=O)C(Cc1c(-c2[nH]c3ccccc3c2CC(NC(C)=O)C(=O)OC)[nH]c2ccccc12)NC(C)=O (configuration not stated)
inactive

One more molecule: O=C1C=C(Br)C(=O)C(Br)=C1
inactive

One more molecule: CC(C)=CCC/C(C)=C/CC/C(C)=C/CCC1(C)CCC([C@H](C)C(=O)O)OO1.CC1=C(CC/C(C)=C/CCC2(C)CCC([C@H](C)C(=O)O)OO2)C(C)(C)CCC1 (some centres not stated)
inactive

One more molecule: CSc1ccc(/C=C/c2ccnc3ccccc23)cc1
inactive

One more molecule: O=C1C=C2CO[C@H]3OC[C@H](O)[C@@H]1[C@@H]23
inactive

###

System: OVCAR-5
Test: NCI tumour cell line growth inhibition, 48 h
Calls of active or inactive are those of the source. Rule as the data show it: active = GI50 up to about 1.1 µM and inactive = higher.
Kindly supply the reported GI50 values for the records listed here.

COc1cc2c3c4c1OCc1c5c(cc(c1-4)CC3[N+](C)(C)CC2)OCO5 (stereo not given); > 100 µM (inactive)
COC(=O)C1=C(O)C(C(=O)OC)[C@]2(O)[C@H](C(=O)OC)[C@H]1C[C@@H](c1ccc(C(F)(F)F)cc1)[C@H]2C(=O)OC (stereo not given in full); 3.63 µM (inactive)
CN(C)CCCNC(=O)c1c(O)c2ccccc2[nH]c1=O; > 100 µM (inactive)
Cc1cc2c(c3c1c1ccccc1n3C)C(=O)C=CC2=O; 43.7 µM (inactive)

Missing value: GI50, OVCAR-5, entry Cc1ccc(C(=O)O/N=C2/CCC/C2=C\c2ccccc2)cc1 . Fill in?
> 100 µM (inactive)

###

Test system: RXF 393
Assay: NCI tumour cell line growth inhibition, 48 h
Calls of active or inactive are those of the source. No stated cut-off is given here; in the data, active = GI50 up to about 1.1 µM and inactive = higher.
READOUT_NAME: GI50

NC(=O)COc1ccccc1; > 100 µM (inactive)
CCOC(=O)c1nnsc1NN=C(C)C; > 100 µM (inactive)
CCOC(=O)c1sc2nc(SC)nc3c2c1NCN3c1ccc2c(c1)OCO2; 3.14 µM (inactive)
O=C(O)C(Cc1cc(I)c(O)c(I)c1)C1CCCCC1 (stereo not drawn); 34.2 µM (inactive)
Cc1cc2c(c3c1c1ccccc1n3C)C(=O)C=CC2=O; 15.3 µM (inactive)

Required: GI50, one value per compound below.
1. N#C/C(=C\n1ccc(=O)[nH]c1=S)C(N)=O
2. c1csc(-c2ccc(-c3cccc4nsnc34)s2)c1
3. Cc1c2ccccc2c(CO)c2cc(F)c3ccccc3c12
4. CC(N)Cc1ccc(F)cc1 (stereo not drawn)
5. CN1/C(=C/C(=O)c2ccc(Cl)cc2)Nc2ccccc21
6. C/C(=N\Nc1nc2ccccc2n1C)c1cnccn1

["> 100 µM (inactive)", "94.4 µM (inactive)", "24.7 µM (inactive)", "> 100 µM (inactive)", "> 100 µM (inactive)", "1.23 µM (inactive)"]

Required: GI50, one value per compound below.
1. CC(C)N1C=[N+](C(C)C)CC1
2. CCN(CC)c1ccc2nc3ccc(/N=N/c4c(O)ccc5ccccc45)cc3[n+](-c3ccccc3)c2c1

> 100 µM (inactive)
> 100 µM (inactive)
